# protocol.notes: Agilent ZORBAX Eclipse Plus C18, 100 × 2.1 mm, 1.8 µm, 25 °C, 0.3 mL/min, estimated dead time 0.73 min; A: water + 0.1% acetic acid; B: methanol; gradient (min/%B) 0/5 6/20 13/35 18/50 24/65 30/90 40/90
# particulars: stereoisomer not certain
measured.property: LC retention time (min)

> print(dat)
                                   compound  unit.name  test.result
1                   COc1cc(C(=O)O)cc(OC)c1O        min         9.87
2                      O=C(O)c1ccc(O)c(O)c1        min         7.74
3      CCC(C)C(N)C(=O)O (centres undefined)        min         4.67
4  NC(N)=NCCCC(N)C(=O)O (centres undefined)        min         2.05
5                            C[N+](C)(C)CCO        min         2.08
6  CC1OC(OCC2OC(Oc3c(-c4ccc(O)c(O)c4)oc4cc(O)cc(O)c4c3=O)C(O)C(O)C2O)C(O)C(O)C1O (centres undefined)        min         11.6

(A) NC(Cc1c[nH]c2ccccc12)C(=O)O (centres undefined)
(B) O=c1cc[nH]c(=O)[nH]1
(C) Nc1ncnc2nc[nH]c12
Please give the order of these compounds when sorted by LC retention time, largest value leading. Lab note: record answer as labels in requested order. A, B, C
(A: 9.7 min, B: 4.2 min, C: 2.73 min)

====

# protocol.notes: RP, Thermo Scientific Accucore C18, 150 × 2.1 mm, 2.6 µm, 24 °C, 0.28 mL/min, estimated dead time 0.83 min; A: 90% water + 10% acetonitrile + 10 mM ammonium acetate; B: 20% water + 80% methanol + 10 mM ammonium acetate; gradient (min/%B) 0/0 2.5/0 7.5/30 12.5/30 15/40 20/100 27.5/100
# particulars: stereoisomer not certain
measured.property: LC retention time (min)

> print(dat)
                                   molecule  test.result
1  NC(CC(O)COc1cccc2ccccc12)=NO (centres undefined)         9.66
2  CCN(CC)C(=O)Nc1ccc(OCC(O)CNC(C)(C)C)c(C(C)=O)c1 (centres undefined)         8.15
3  CC1(C)OC2CC3C4CCC5=CC(=O)C=CC5(C)C4C(O)CC3(C)C2(C(=O)CO)O1 (centres undefined)         12.7
4  CC(Cc1ccccc1)NCCn1cnc2c1c(=O)n(C)c(=O)n2C (centres undefined)          8.9
5               CCN(CC)C(=O)c1ccc(O)c(OC)c1         8.07

(1) CC(CCc1ccccc1)NCC(O)c1ccc(O)c(C(N)=O)c1 (centres undefined)
(2) CC(=O)OCC(=O)C12N=C(C)OC1CC1C3CCC4=CC(=O)C=CC4(C)C3C(O)CC12C (centres undefined)
# returns the entry with the larger LC retention time; inputs 1 and 2 Answer by quoting the chosen item's label. 2
(2: 15.7 min, 1: 9 min)

====

# protocol.notes: RP, Thermo Scientific Accucore C18, 150 × 2.1 mm, 2.6 µm, 24 °C, 0.28 mL/min, estimated dead time 0.83 min; A: 90% water + 10% acetonitrile + 10 mM ammonium acetate; B: 20% water + 80% methanol + 10 mM ammonium acetate; gradient (min/%B) 0/0 2.5/0 7.5/30 12.5/30 15/40 20/100 27.5/100
# particulars: stereoisomer not certain
measured.property: LC retention time (min)

See these solved cases before continuing.
compound	unit.name	LC retention time
CC(C)NCC(O)COc1ccc(COCCOC(C)C)cc1 (configuration not stated)	min	8.86
CCNC1C2CCC(C2)C1c1ccccc1 (configuration not stated)	min	9.1
COc1ccc(CC(C)NCC(O)c2ccc(O)c(NC=O)c2)cc1.COc1ccc(CC(C)NCC(O)c2ccc(O)c(NC=O)c2)cc1.O=C(O)C=CC(=O)O (configuration not stated)	min	7.62
Nc1nc(N)c2nc(-c3ccccc3)c(N)nc2n1	min	6.51
CNC(C)C(O)c1ccccc1 (configuration not stated)	min	2.75
CC(C)(C)NCC(O)COc1cccc2c1CCC(=O)N2 (configuration not stated)	min	4.22

(I) OCc1cc(C(O)CNCCCCCCOCCCCc2ccccc2)ccc1O (configuration not stated)
(II) CC(C)(C)NCC(O)COc1nsnc1N1CCOCC1 (configuration not stated)
# returns the entry with the larger LC retention time; inputs I and II Answer by quoting the chosen item's label. I
(I: 17 min, II: 7.05 min)

====

# protocol.notes: RP, Thermo Scientific Accucore C18, 150 × 2.1 mm, 2.6 µm, 24 °C, 0.28 mL/min, estimated dead time 0.83 min; A: 90% water + 10% acetonitrile + 10 mM ammonium acetate; B: 20% water + 80% methanol + 10 mM ammonium acetate; gradient (min/%B) 0/0 2.5/0 7.5/30 12.5/30 15/40 20/100 27.5/100
# particulars: stereoisomer not certain
measured.property: LC retention time (min)

> print(dat)
                                   molecule  test.result
1  CC(N)Cc1ccccc1 (configuration not stated)         3.77
2             CCOC(=O)C1(c2ccccc2)CCN(C)CC1          8.8
3  CC(C)(C#N)c1cc(Cn2cncn2)cc(C(C)(C)C#N)c1         12.2
4  COc1ccc2c3c1OC1C(O)C=CC4C(C2)N(C)CCC341 (configuration not stated)         4.48
5              NC(=O)N1c2ccccc2C=Cc2ccccc21         10.7
6  CC(C)NCC(O)COc1ccc(CCOCC2CC2)cc1 (configuration not stated)         10.2
7  CN1C2CCC1C(C(=O)O)C(OC(=O)c1ccccc1)C2 (configuration not stated)         4.81

====

# protocol.notes: RP, Thermo Scientific Accucore C18, 150 × 2.1 mm, 2.6 µm, 24 °C, 0.28 mL/min, estimated dead time 0.83 min; A: 90% water + 10% acetonitrile + 10 mM ammonium acetate; B: 20% water + 80% methanol + 10 mM ammonium acetate; gradient (min/%B) 0/0 2.5/0 7.5/30 12.5/30 15/40 20/100 27.5/100
# particulars: stereoisomer not certain
measured.property: LC retention time (min)

> print(dat)
                                   molecule  unit.name  test.result
1  O=C1CC2OCC=C3CN4CCC56c7ccccc7N1C5C2C3CC46 (centres undefined)        min         6.68
2  CC(C)=CCN1CCC2(C)c3cc(O)ccc3CC1C2C (centres undefined)        min         9.19

(1) CCCN(CCC)S(=O)(=O)c1ccc(C(=O)O)cc1
(2) COc1ccccc1OCCNCC(O)COc1cccc2[nH]c3ccccc3c12 (centres undefined)
Looking only at measured LC retention time, which entry is lower, 1 or 2 ? Answer by quoting the chosen item's label. 1
(1: 8.74 min, 2: 15.4 min)

(I) COC(=O)CCc1ccc(OCC(O)CNC(C)C)cc1 (centres undefined)
(II) C#CC1(O)CCC2C3C(C)CC4=C(CCC(=O)C4)C3CCC21C (centres undefined)
# returns the entry with the larger LC retention time; inputs I and II Answer by quoting the chosen item's label. II
(II: 18.6 min, I: 8.1 min)

====

# protocol.notes: RP, Thermo Scientific Accucore C18, 150 × 2.1 mm, 2.6 µm, 24 °C, 0.28 mL/min, estimated dead time 0.83 min; A: 90% water + 10% acetonitrile + 10 mM ammonium acetate; B: 20% water + 80% methanol + 10 mM ammonium acetate; gradient (min/%B) 0/0 2.5/0 7.5/30 12.5/30 15/40 20/100 27.5/100
# particulars: stereoisomer not certain
measured.property: LC retention time (min)

> print(dat)
                                   compound  test.result
1  CC(C)NCC(O)COc1cccc2ccccc12 (stereo not drawn)         9.86
2  CNC(C)C(=O)c1ccc2c(c1)OCO2 (stereo not drawn)         3.44
3                       c1ccc(CN2CCNCC2)cc1         4.45
4  CC12CCC(=O)C=C1CCC1C2C(=O)CC2(C)C1CCC2(O)C(=O)CO (stereo not drawn)         9.34
5  CCCC(=O)Nc1ccc(OCC(O)CNC(C)C)c(C(C)=O)c1 (stereo not drawn)         7.07
6    CC(Cc1ccccc1)NCCC#N (stereo not drawn)         8.95
7  COc1ccc2c(c1)C13CCCCC1C(C2)N(C)CC3 (stereo not drawn)           11
8        CNC(C)CC1CCCCC1 (stereo not drawn)         8.35
